- System: P. falciparum 3D7 parasites
- ASSAY COMMENT: P. falciparum growth inhibition assay, 2-cycle (120 h treatment), delayed-death screen and dose-response
- Assay type: cell-based, Plasmodium falciparum
- CONDITION: library screen at 2 μg/mL, 120 h, % growth, replicate 2
ASSAY ENDPOINT: Pf_120h_%Growth_Rep2
Give the value; after it, write the unit.

C=CC(C)(C)C12CC3C(=O)Nc4ccccc4C(=O)N3C1Nc1ccccc12 (stereo not shown) [Aszonalenin] ... 94.67%

Query: Quick one: Pf_120h_%Growth_Rep2 of CC[C@H](C)[C@H]1O[C@]2(C=C[C@@H]1C)C[C@@H]1C[C@@H](C/C=C(\C)[C@@H](O[C@H]3C[C@H](OC)[C@@H](O[C@H]4C[C@H](OC)[C@@H](O)[C@H](C)O4)[C@H](C)O3)[C@@H](C)/C=C/C=C3\CO[C@@H]4[C@H](O)C(C)=C[C@H](C(=O)O1)[C@]34O)O2 [Avermectin B1a, epi-] ?
Reply: -2.43%

Query: Quick one: Pf_120h_%Growth_Rep2 of C=C(NC(=O)C(=C)NC(=O)c1ccc2c(n1)-c1coc(n1)C(=C)NC(=O)C(=C)NC(=O)c1nc(oc1C)C(=C)NC(=O)[C@H](C(C)(C)O)NC(=O)C(=C)NC(=O)c1nc(oc1C)/C(=C/C)NC(=O)[C@H]([C@@H](C)O)NC(=O)c1csc-2n1)C(N)=O [Berninamycin A] ?
Reply: 104.87%

Query: Quick one: Pf_120h_%Growth_Rep2 of CO/C1=C\C(C)=C\[C@@H](C)[C@@H](O)[C@@H](C)C/C(C)=C/C=C/[C@H](OC)[C@@H]([C@@H](C)[C@@H](O)[C@H](C)[C@@]2(O)C[C@@H](OC(=O)/C=C/C(=O)NC3=C(O)CCC3=O)[C@H](C)[C@@H](C(C)C)O2)OC1=O [Bafilomycin B1] ?
Reply: 11.47%

Query: Quick one: Pf_120h_%Growth_Rep2 of CCc1cc(O)cc(O)c1C(=O)O[C@H]1[C@H](O)[C@H](OC)[C@H](OC/C2=C\C=C\C[C@H](O)/C(C)=C/[C@H](CC)[C@@H](O[C@@H]3OC(C)(C)[C@@H](OC(=O)C(C)C)[C@H](O)[C@@H]3O)/C(C)=C/C(C)=C/C[C@@H]([C@@H](C)O)OC2=O)O[C@@H]1C [Didechlorofidaxomicin] ?
Reply: 29.62%

Query: Quick one: Pf_120h_%Growth_Rep2 of CC(C)c1ncc(Cc2ccccc2)[nH]c1=O [Aureusimine B] ?
Reply: 94.84%

Query: Quick one: Pf_120h_%Growth_Rep2 of COC1=C(OC)C(=O)C(C)=C(C)C1=O [Aurantiogliocladin] ?
Reply: -13.06%

Source of measurements: paper PMC12396409
